study_conditions: buffer; pH 7.4; 200.0 µM
measure_name: solubility kinetic

compound: O=C(CN1C(=O)/C(=C2/SC(=S)N(CCS(=O)(=O)O)C2=O)c2ccccc21)Nc1cccc(C(F)(F)F)c1
solubility kinetic: 5.9 µg/mL
//
compound: CCCC(=O)Nc1cccc(Oc2ccc3c(c2)C(=O)NC3=O)c1
solubility kinetic: 11.6 µg/mL
//
compound: Cc1cc(C)cc(NC(=O)C[n+]2ccccc2)c1.[Cl-]
solubility kinetic: > 41.5 µg/mL
//
compound: Cc1ccc(C)n1-c1nccc(-c2ccco2)n1
solubility kinetic: 23.5 µg/mL

Please examine the following record next.
Could you please provide reported solubility kinetic for COc1ccc(NC(=O)C2CC(=O)N(c3ccccc3C)C2)c(OC)c1 (stereo not given) ? Thanks! > 53.2 µg/mL

---

study_conditions: buffer; pH 7.4; 200.0 µM
measure_name: solubility kinetic (µg/mL)
The answer is to be given in µg/mL; state only the numeric part.

Below, 3 molecules whose answers are already recorded.
line_notation: CCOC(=O)c1sc(Nc2ccc(Br)cc2)nc1C
measurement_units: µg/mL
solubility kinetic: 1.2
//
line_notation: Cc1cc(N2CCCC2)nc2ccccc12
measurement_units: µg/mL
solubility kinetic: 31.6
//
line_notation: O=C(CCl)N(c1ccccc1)C1CCCCC1
measurement_units: µg/mL
solubility kinetic: 36.6

Supply solubility kinetic value. Item: `COc1ccc(C(=O)NCC(=O)OCCOc2ccc(Cl)cc2)cc1OC` 13.6

---

study_conditions: buffer; pH 7.4; 200.0 µM
measure_name: solubility kinetic

compound: COc1cc(C(=O)NCc2ccc3c(c2)OCO3)c([N+](=O)[O-])cc1OC
recorded_value: 38.3 µg/mL
--
compound: CC(CNC(=O)COC(=O)c1cccs1)c1ccccc1 (stereo unspecified)
recorded_value: > 45.5 µg/mL
--
compound: CN(C)C(C)(C)C#CC(O)(c1ccccc1)c1ccccc1
recorded_value: > 44 µg/mL
--
compound: Cc1ccc(N2CC(C(=O)Nc3cc(C)on3)CC2=O)c(C)c1 (stereo unspecified)
recorded_value: > 47 µg/mL
--
compound: O=C(CCN1CCN(CCO)CC1)Nc1ccc(Br)cc1
recorded_value: > 53.4 µg/mL

Quote solubility kinetic reported for `CC(C)OC(=O)CSc1nc2c(cc1C#N)CCCCC2` please. < 0.3 µg/mL

---

study_conditions: buffer; pH 7.4; 200.0 µM
log10 solubility kinetic reference
Remember, log10 of solubility kinetic, in µg/mL.

molecule: CC(NC(=O)c1ccccc1Br)C1CC2CCC1C2 (configuration not stated)
log10 solubility kinetic: 1.31
//
molecule: COc1ccc(NC(=O)C(C)SCc2ccccc2)cc1 (configuration not stated)
log10 solubility kinetic: 1.61
//
molecule: COc1ccccc1OCc1nc2ccccc2n1C
log10 solubility kinetic: 1.57
//
molecule: COC(=O)CN(C#N)c1nc(N(C)C)nc(N(C)C)n1
log10 solubility kinetic: 1.49
//
molecule: COc1ccccc1OCC(=O)Nc1sc2c(c1C(N)=O)CCC2
log10 solubility kinetic: 0.66
//
molecule: O=S(=O)(c1ccc(F)c(F)c1F)N1CCN(c2ncnc3sccc23)CC1
log10 solubility kinetic: 0.40
//
molecule: CCNC(=O)NC(=O)C(C)OC(=O)CCCc1nc2ccccc2s1 (configuration not stated)
log10 solubility kinetic: 1.69

In the following, a different molecule is considered.
Return log10 solubility kinetic (reported value) for this molecule: `O=C(Nc1ccc2ccccc2c1)c1ccccc1O` -0.15
